Would you mind telling me the reported GI50 of each entry?
- Tested on: RXF 393
- assay: NCI tumour cell line growth inhibition, 48 h
Activity calls are given as the source filed them. Rule as the data show it: active = GI50 up to about 1.1 µM and inactive = higher.

molecule	GI50
CC(C(=O)O)c1cnn(-c2ccccc2)c1-n1cccc1 (centres undefined)	> 100 µM (inactive)
O=C1CCC(O)=C1O	> 100 µM (inactive)

Report GI50 for every entry below.
1. CCOC(=O)C(=CNc1ccc(F)c(F)c1)C(=O)OCC
2. O=[N+]([O-])c1ccc(-c2nc(/C=N/N3CCCCC3)cs2)o1
3. CC(=O)NC1C(OC2C(CO)OC(OCC3OC(n4ccc(N)nc4=O)C(O)C3O)C(NC(C)=O)C2O)OC(CO)C(O)C1O (centres undefined)

Return:
> 100 µM (inactive)
> 100 µM (inactive)
> 100 µM (inactive)

Report GI50 for every entry below.
1. Cc1nn(-c2ccccc2)c(S)c1C(=O)c1ccccc1
2. O=C(Nc1ccc(Sc2ccc(/N=N/c3c(O)c(S(=O)(=O)O)cc4cc(S(=O)(=O)O)ccc34)cc2)cc1)c1ccc(/N=N/c2c(O)ccc3c(S(=O)(=O)O)cc(S(=O)(=O)O)cc23)cc1

Return:
["3.41 µM (inactive)", "50.6 µM (inactive)"]

Report GI50 for every entry below.
1. O=[N+]([O-])c1cc(Cl)ccc1S(=O)(=O)c1ccc(Cl)cc1[N+](=O)[O-]
2. Cc1ccc(/N=C2/C(c3ccccc3)=C(SC3=C(c4ccccc4)/C(=N/c4ccc(C)cc4)c4ccccc43)c3ccccc32)cc1

Return:
15.1 µM (inactive)
12.4 µM (inactive)

----------
- Tested on: SF-295
- assay: NCI tumour cell line growth inhibition, 48 h
The source made the active and inactive calls. Rule as the data show it: active = GI50 up to about 1.1 µM and inactive = higher.
observable: GI50

Worked examples follow.
compound	GI50
COC(OC)C(O)C1OC=CC1n1cnc2c(N)ncnc21 (stereo not given)	> 100 µM (inactive)
O=C(CN1CCOCC1)c1ccc2c(c1)oc(=O)n2CCN1CCCCC1	> 100 µM (inactive)

Report GI50 for every entry below.
1. CCOC(=O)/C(C#N)=C\c1ccc(N(CCC(=O)O)CCC(=O)O)c(I)c1
2. Clc1ccc2c(c1)C1C(CO2)C(c2ccccc2)=NN1c1ccccc1 (stereo not given)
3. C[C@]12CC=CC(=O)[C@@]1(C)CCC(=O)C2
4. O=C(Nc1ccc(Sc2ccc(/N=N/c3c(O)c(S(=O)(=O)O)cc4cc(S(=O)(=O)O)ccc34)cc2)cc1)c1ccc(/N=N/c2c(O)ccc3c(S(=O)(=O)O)cc(S(=O)(=O)O)cc23)cc1
5. O=c1nc(N2CCNCC2)oc2cc(Cl)oc(=O)c12
6. CN(C)CCOc1ccc([N+](=O)[O-])c2cccnc12

Return:
["> 10 µM (inactive)", "35.6 µM (inactive)", "> 100 µM (inactive)", "62.7 µM (inactive)", "7.13 µM (inactive)", "> 100 µM (inactive)"]

Report GI50 for every entry below.
1. CCOC(=O)C1(C(=O)OCC)OC(C)=NC1(C(=O)OC)C(=O)OC
2. CCCCc1ccc(-n2c(C)c(COC(=O)NC)c(COC(=O)NC)c2C)cc1

Return:
> 100 µM (inactive)
8.61 µM (inactive)

----------
- Test system: MOLT-4
- assay: NCI tumour cell line growth inhibition, 48 h
The source made the active and inactive calls. Cut-off read from the data, not from the text of the source: active = GI50 up to about 1.1 µM and inactive = higher.
Would you mind telling me the reported GI50 of each entry?

Worked examples follow.
compound	value observed
CC(Oc1ccc(Oc2cnc3ccc(Cl)cc3n2)cc1)C(=O)O (stereo not given)	15.1 µM (inactive)
NC(Cc1ccc(S(=O)(=O)O)cc1)C(=O)NC(Cc1ccc(S(=O)(=O)O)cc1)C(=O)NC(Cc1ccc(S(=O)(=O)O)cc1)C(=O)NC(Cc1ccc(S(=O)(=O)O)cc1)C(=O)O (stereo not given)	> 100 µM (inactive)
CSC1=N/C(=C\c2ccccc2)C(=O)N1CN1CCOCC1	64.6 µM (inactive)
N=C(N)/N=C(/C=C/c1ccccc1)CC1OC(=O)c2ccccc21 (stereo not given)	> 100 µM (inactive)
COc1cc(C=C2C(=O)NC(=S)NC2=O)cc(OC)c1OC	> 100 µM (inactive)

Report GI50 for every entry below.
1. Cc1nn(-c2ccccc2)c(S)c1C(=O)c1ccccc1
2. COC(O)C12OC3CO[Si](C(C)C)(C(C)C)O[Si](C(C)C)(C(C)C)OC3C1Oc1nc(=O)ccn12 (stereo not given)
3. CCCCCCCCCCCCCCCc1ccc(OCC(O)CO)cc1 (stereo not given)
4. CC1(C)CC(=O)C2=C(C1)OC1(CC2c2ccc(Cl)cc2)CC(c2ccc(Cl)cc2)C2=C(CC(C)(C)CC2=O)O1 (stereo not given)
5. CC12CCCC(C(=O)O)(C1)[C@H](C(C)(C)C(=O)O)CC2 (stereo not given in full)

Return:
24.4 µM (inactive)
2.15 µM (inactive)
> 100 µM (inactive)
3.13 µM (inactive)
> 100 µM (inactive)
